assay: Concentration of the compound in monkey plasma by LC-MS/MS; assay type: in vivo; settings: male, rhesus monkey, Rhesus monkeys, oral 10.0 mg/kg, 96 h
measured-property: concentration at 96 h (nM)
Reply with just the number (in nM).

Q: Can you share its concentration at 96 h? I mean this compound: CS(=O)(=O)n1cc2c(n1)CN([C@@H]1C[C@H](N)[C@@H](c3cc(F)ccc3F)O[C@@H]1C(F)(F)F)C2 [Compound 3]
Result: 710

====

assay: Concentration of the compound in monkey plasma by LC-MS/MS; assay type: in vivo; details: male, rhesus monkey, Rhesus monkeys, oral 10.0 mg/kg, 120 h
measured-property: concentration at 120 h (nM)
I only need the number, in nM, no unit after it.

Q: Could you tell me which concentration at 120 h is on file for CS(=O)(=O)n1cc2c(n1)CN([C@@H]1C[C@H](N)[C@@H](c3cc(F)ccc3F)O[C@@H]1C(F)(F)F)C2 [Compound 3] ?
Result: 340
